assay.system: hCA XII (Homo sapiens)
Sequence (O43570 25-354): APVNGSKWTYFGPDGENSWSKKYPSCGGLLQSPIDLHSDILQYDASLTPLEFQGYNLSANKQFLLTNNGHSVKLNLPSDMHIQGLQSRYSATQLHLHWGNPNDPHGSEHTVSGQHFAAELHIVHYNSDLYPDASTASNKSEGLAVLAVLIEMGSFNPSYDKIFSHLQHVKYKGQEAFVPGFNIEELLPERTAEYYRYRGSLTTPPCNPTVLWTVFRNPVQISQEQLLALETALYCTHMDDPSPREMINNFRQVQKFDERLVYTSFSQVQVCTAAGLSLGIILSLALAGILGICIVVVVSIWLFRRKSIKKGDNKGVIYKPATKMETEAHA
assay.notes: stopped-flow CO2 hydrase assay, hCA XII
Type: biochemical
condition.info: KI hCA XII, stopped flow technique, mean from three assays
reported.endpoint: pKi
Please note pKi is a logarithmic value: minus log10 of concentration in mol/L. Answer with that number alone.

Some solved entries appear below for comparison.
| line.notation | reported.endpoint | data.value |
| --- | --- | --- |
| NS(=O)(=O)c1ccc(Nc2nc3nccc(-c4cccc(F)c4)n3n2)cc1 | pKi | 7.37 |
| NS(=O)(=O)c1ccc(Nc2nc3nccc(-c4cccc(Br)c4)n3n2)cc1 | pKi | 7.10 |
| COc1cccc(-c2ccnc3nc(Nc4ccc(S(N)(=O)=O)cc4)nn23)c1 | pKi | 7.90 |

IN: Find the recorded pKi belonging to `COc1ccc(-c2ccnc3nc(Nc4ccc(S(N)(=O)=O)cc4)nn23)cc1OC` and report it.
OUT: 8.05

IN: Now consider `Cc1cccc(-c2ccnc3nc(Nc4ccc(S(N)(=O)=O)cc4)nn23)c1` and answer again.
OUT: 7.15

IN: Now consider `NS(=O)(=O)c1ccc(Nc2nc3nccc(-c4cccc([N+](=O)[O-])c4)n3n2)cc1` and answer again.
OUT: 8.37

IN: Now consider `NS(=O)(=O)c1ccc(Nc2nc3nccc(-c4ccc(Cl)cc4)n3n2)cc1` and answer again.
OUT: 7.53

IN: Now consider `NS(=O)(=O)c1ccc(Nc2nc3nccc(-c4ccccc4F)n3n2)cc1` and answer again.
OUT: 7.59
